Measured EC50, listed per entry.
- Tested On: human S1P receptor EDG-8 (S1P5) (Homo sapiens, UniProt Q9H228)
- Sequence (Q9H228 whole entry): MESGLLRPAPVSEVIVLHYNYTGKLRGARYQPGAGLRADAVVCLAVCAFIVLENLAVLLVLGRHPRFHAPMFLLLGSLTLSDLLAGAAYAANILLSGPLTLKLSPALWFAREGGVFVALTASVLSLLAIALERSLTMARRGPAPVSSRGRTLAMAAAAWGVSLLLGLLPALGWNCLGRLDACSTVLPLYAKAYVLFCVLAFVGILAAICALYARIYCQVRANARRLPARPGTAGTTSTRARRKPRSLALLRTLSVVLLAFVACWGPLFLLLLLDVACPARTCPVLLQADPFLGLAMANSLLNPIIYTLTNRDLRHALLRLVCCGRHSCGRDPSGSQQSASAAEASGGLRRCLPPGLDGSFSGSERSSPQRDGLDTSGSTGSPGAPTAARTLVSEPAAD
- Test Description: S1P receptor profiling, GTP[γ-35S] binding SPA, S1P5
- Experimental Context: GTP[γ-35S] binding, membranes of transfected CHO or RH7777 cells
Quick note: give the figure in nM, leave out the unit.

Molecule: CCOc1ccc(CCOc2c(Cl)cc(CC[C@@](C)(N)COP(=O)(O)O)cc2OC)cc1 [Example 10]
Tested On: human S1P receptor EDG-8 (S1P5) (Homo sapiens, UniProt Q9H228)
Value Type: EC50
Reading: 2.5

Molecule: CCCCCOc1c(Cl)cc(CC[C@@](C)(N)COP(=O)(O)O)cc1Cl [Example 4]
Tested On: human S1P receptor EDG-8 (S1P5) (Homo sapiens, UniProt Q9H228)
Value Type: EC50
Reading: 0.2

Consider the additional molecule presented here.
q: Could you share which EC50 value was measured for COc1cc(CC[C@@](C)(N)COP(=O)(O)O)cc(Cl)c1OCCCC(F)(F)C(F)(F)F [Example 6] ?
a: 0.2
